Source: PubChem BioAssay AID651702

- test.summary: LAMP-1 surface exposure blockers, TALL-104 cells – cell-based, flow cytometry, MLPCN library, primary screen (AID 651702)
- test.parameters: TALL-104 LAMP-1 surface exposure, at 10 µM, cells stimulated with thapsigargin and PMA
Among all 360,000 compounds or so, about 2,400 (0.67%) were called active.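 Rule for the calls: active = inhibition above about 55% (limit read from the data); inconclusive = no clear call, values can overlap the other calls; inactive = the rest.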 What follows is part of a selection rich in actives, with near analogues and random picks from the rest.
Select the matching outcome among active, inactive

Asked: Short answer needed: outcome of this test for CC1CCc2c(nc3ncnn3c2Nc2ccc(OC(F)(F)F)cc2)C1 (stereo not given) ?
Given back: inactive

Asked: Short answer needed: outcome of this test for CCCc1nc(SCC(=O)N2CCCC2)c2c(=O)n(C)c(=O)n(C)c2n1 ?
Given back: inactive

Asked: Short answer needed: outcome of this test for CN1C(C(=O)NCC2CC2)CC2Cn3c(nc4ccccc43)C21 (stereo not given) ?
Given back: inactive

Asked: Short answer needed: outcome of this test for O=c1cc(CO)oc(C(Nc2cccc(C(F)(F)F)c2)c2ccccn2)c1O (stereo not given) ?
Given back: inactive

Asked: Short answer needed: outcome of this test for Cc1ccc(-c2nnn(CC(=O)N(Cc3ccco3)C(C(=O)NC(C)(C)C)c3ccncc3)n2)o1 (stereo not given) ?
Given back: inactive

Asked: Short answer needed: outcome of this test for CC(=O)NCC(=O)N(Cc1ccco1)C1(C(=O)NC2CCCC2)CCCCC1 ?
Given back: inactive

Asked: Short answer needed: outcome of this test for CC(=O)Nc1ccc(NC(=O)CSc2nnnn2C2CCCCC2)cc1 ?
Given back: inactive

Asked: Short answer needed: outcome of this test for Cc1ccccc1CSc1nnc(CCCCCNC(=O)OC(C)(C)C)o1 ?
Given back: inactive

Asked: Short answer needed: outcome of this test for Cc1ccc(OCCC(=O)OCC(=O)N2c3ccccc3NC(=O)C2(C)C)cc1 ?
Given back: inactive

Asked: Short answer needed: outcome of this test for COc1ccc(-c2oc3ncnc(NCCCO)c3c2-c2ccc(OC)cc2)cc1 ?
Given back: active
